- Test system: K4 kissing-loop RNA reporter;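 further: bound reporter read as fluorescence of individual clusters on recovered sequencing chips by microscopy, with normalized cluster intensities fitted with a binding model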
- procedure.summary: apparent KD of K4 kissing-loop reporter; higher = weaker reporter binding
- test.context: Eterna round: R107; input ligand: none
Each entry falls in a class defined on apparent KD of K4 kissing-loop reporter; the bands are low bracket: < 100 nM; middle bracket: ≥ 100 nM and < 200 nM; high bracket: ≥ 200 nM

Illustrative cases are given below, each with its answer.
monomer.sequence	label.class
CAUACGCAUGGAGGAUAUGAGAUUUCUCAUAUUAUUUAAUAUUCUCAGUGAUGUUGAGAAUUAAACUCAGAAGGCCAUGUGUAUG [Ex FMN B 4]	middle bracket
CUUGGUCUACGAAGGAGCGCCGUGCAGUGAUGUUGCAGUCAGAUCGAGUGAUGUUUCGGGCGGCAGGUAGGUCGCGUGGCCCUUU [Excusion Arginine B GF 26]	high bracket
UUACAGGAACAAGGAUAUGGCGUUGUAGUGAUGUUACAGCGAAGAGCUCCACGCGAUCGGACAAAACCAGAAGGUGUAUGGAAUC [theeternabot_exclusion_KL_FMN_B_42]	middle bracket

Exam item: For UGCUUUAUCAGAAGGAGCGGGUUGUUCAUAAUAAUAAUCAGUGAUGUUGAUAUAUGAUGAUUCCAGGUAGGUCGCUGAUAUAGCU [KL-XARG-B2] , which apparent KD of K4 kissing-loop reporter bin applies?
Marked response: high bracket

Exam item: For CCAUCGCUAUUCGAUACCAGCUACUUAGUGAUGUUAAGUUAAAAUAAAUUGUAGAUUAAAAGCCCUUGGCAGCGAAUAGUGAUGG [Theophylline B K4 19] , which apparent KD of K4 kissing-loop reporter bin applies?
Marked response: middle bracket

Exam item: For `ACUAUCGAAAGAUAGUUCCCAGAGCUAGUAGAGGAUAUCUGGAAACAGAGAAGGCUACAAGAGUGAUGUUCUUCUAGCUUUGGGA` , which apparent KD of K4 kissing-loop reporter bin applies?
Marked response: high bracket

Exam item: For GGAAAGCCAGUGAUGUUGGCAUAAACUGAAGGAGCGCGUGAAAACGCAGGUAGGUCGCAGAACCUUGCCAACUAUAUUAUUUACC [Ex Arginine A K4 21] , which apparent KD of K4 kissing-loop reporter bin applies?
Marked response: middle bracket

Exam item: For GCUAUGGUAGGAAGGAGCGCUUGCUCGGUCAUAUGAGUGAUGUUCGAGACUGAGCAUUUAUAGCAGGUAGGUCGCCUACUAUAGC [Arginine B K4 9] , which apparent KD of K4 kissing-loop reporter bin applies?
Marked response: middle bracket

Exam item: For UUGCCCGAUGGAGAUACCAGCAGUUGUGCAGUGAUGUUGCACAAGUACUCGCUCCAUUGCUGCCCUUGGCAGCUCCCGGCGAAAA [Reoraren] , which apparent KD of K4 kissing-loop reporter bin applies?
Marked response: low bracket

Exam item: For UUUUAAAUGUCUGAUACCAGAGAAAAUAUAUGUAGUGAUGUUACAUACAAAUUUAAUAAGCUCCCUUGGCAGCAGUAUGAAUUUU [AstrosExc-TheB#15] , which apparent KD of K4 kissing-loop reporter bin applies?
Marked response: low bracket
